details: in ethanol, 298.15 K
measuredProperty: solubility (mole fraction)
Please reply with the number alone, leaving off any unit.

Need solubility (mole fraction), item C=C[C@]1(C)C[C@@H](OC(=O)CSC(C)(C)CNC(=O)[C@H](N)C(C)C)[C@]2(C)[C@H](C)CC[C@]3(CCC(=O)[C@H]32)[C@@H](C)[C@@H]1O.Cl 0.0601

====

conditions: in water, 308.15 K
measuredProperty: solubility (mole fraction)
Please reply with the number alone, leaving off any unit.

Need solubility (mole fraction), item C=C[C@]1(C)C[C@@H](OC(=O)CSC(C)(C)CNC(=O)[C@H](N)C(C)C)[C@]2(C)[C@H](C)CC[C@]3(CCC(=O)[C@H]32)[C@@H](C)[C@@H]1O.Cl 0.0344

====

conditions: in ethanol, 303.15 K
measuredProperty: solubility (mole fraction)
Please reply with the number alone, leaving off any unit.

Need solubility (mole fraction), item C=C[C@]1(C)C[C@@H](OC(=O)CSC(C)(C)CNC(=O)[C@H](N)C(C)C)[C@]2(C)[C@H](C)CC[C@]3(CCC(=O)[C@H]32)[C@@H](C)[C@@H]1O.Cl 0.0713

====

settings: in water, 293.15 K
measuredProperty: solubility (mole fraction)

Need solubility (mole fraction), item C=C[C@]1(C)C[C@@H](OC(=O)CSC(C)(C)CNC(=O)[C@H](N)C(C)C)[C@]2(C)[C@H](C)CC[C@]3(CCC(=O)[C@H]32)[C@@H](C)[C@@H]1O.Cl 0.00853

====

conditions: in water, 288.15 K
measuredProperty: solubility (mole fraction)

Need solubility (mole fraction), item C=C[C@]1(C)C[C@@H](OC(=O)CSC(C)(C)CNC(=O)[C@H](N)C(C)C)[C@]2(C)[C@H](C)CC[C@]3(CCC(=O)[C@H]32)[C@@H](C)[C@@H]1O.Cl 0.00545

====

conditions: in water, 298.15 K
measuredProperty: solubility (mole fraction)
Please reply with the number alone, leaving off any unit.

Need solubility (mole fraction), item C=C[C@]1(C)C[C@@H](OC(=O)CSC(C)(C)CNC(=O)[C@H](N)C(C)C)[C@]2(C)[C@H](C)CC[C@]3(CCC(=O)[C@H]32)[C@@H](C)[C@@H]1O.Cl 0.0135

====

details: in water, 278.15 K
measuredProperty: solubility (mole fraction)
Please reply with the number alone, leaving off any unit.

Need solubility (mole fraction), item C=C[C@]1(C)C[C@@H](OC(=O)CSC(C)(C)CNC(=O)[C@H](N)C(C)C)[C@]2(C)[C@H](C)CC[C@]3(CCC(=O)[C@H]32)[C@@H](C)[C@@H]1O.Cl 0.00162

====

conditions: in ethanol, 288.15 K
measuredProperty: solubility (mole fraction)
Please reply with the number alone, leaving off any unit.

Need solubility (mole fraction), item C=C[C@]1(C)C[C@@H](OC(=O)CSC(C)(C)CNC(=O)[C@H](N)C(C)C)[C@]2(C)[C@H](C)CC[C@]3(CCC(=O)[C@H]32)[C@@H](C)[C@@H]1O.Cl 0.0432

====

conditions: in ethanol, 308.15 K
measuredProperty: solubility (mole fraction)

Need solubility (mole fraction), item C=C[C@]1(C)C[C@@H](OC(=O)CSC(C)(C)CNC(=O)[C@H](N)C(C)C)[C@]2(C)[C@H](C)CC[C@]3(CCC(=O)[C@H]32)[C@@H](C)[C@@H]1O.Cl 0.0837
